Test system: SF-295 CNS
ASSAY DETAILS: NCI tumour cell line growth inhibition, 48 h
RECORDED ENDPOINT: TGI

// solved cases for TGI follow
COMPOUND	TGI
CS(=O)(=O)c1ccc(COP(N)(=O)N(CCCl)CCCl)cc1 (stereo not given)	> 100 µM
Cc1ccc(N2C(=O)C3CSCN3C2=O)cc1 (stereo not given)	> 100 µM
COc1ccc2nc(C)cc(Sc3nc4ccccc4s3)c2c1	13.2 µM
Cc1cc(S(=O)(=O)Nc2nc3cscc3c(=O)n2N)c(S)cc1Cl	> 100 µM
O=C1c2ccncc2C(=O)c2c(O)ccc(O)c21	25.1 µM

Now look at this entry.
Ask | Fill in reported TGI for this entry: Cc1cc(=O)[nH]c(N/N=C/c2ccccc2O)n1
Reply | > 100 µM
